Below are IC50 measurements against CK1ε (Homo sapiens (Human), UniProt P49674) drawn from the literature.
Sequence (P49674 whole entry): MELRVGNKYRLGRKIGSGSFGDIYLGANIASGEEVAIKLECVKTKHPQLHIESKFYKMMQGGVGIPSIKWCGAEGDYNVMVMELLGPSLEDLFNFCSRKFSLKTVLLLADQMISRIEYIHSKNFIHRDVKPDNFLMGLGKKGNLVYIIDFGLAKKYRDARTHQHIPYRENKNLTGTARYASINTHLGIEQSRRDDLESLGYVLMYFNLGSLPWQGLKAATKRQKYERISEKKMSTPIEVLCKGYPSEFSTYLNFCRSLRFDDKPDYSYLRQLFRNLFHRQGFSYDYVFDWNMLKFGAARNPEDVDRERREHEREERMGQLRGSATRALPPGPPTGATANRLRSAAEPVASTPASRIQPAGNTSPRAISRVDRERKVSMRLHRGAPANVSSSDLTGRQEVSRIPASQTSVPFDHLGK
Experimental Readout: IC50 (nM)

I: Cc1nc(-c2ccc(F)cc2)c(-c2ccc3nc(NC(=O)c4cn(C)cn4)cn3n2)n1C
II: Cc1nnsc1C(=O)Nc1cn2nc(-c3c(-c4ccc(F)cc4)nc(C)n3C)ccc2n1
[ask] Could you please tell me which of these two has the higher IC50: I or II ? Returns: label corresponding to the selected item.
[reply] I
(I: 87.5 nM, II: 2.01 nM)

1: CC(C)(C)NC(=O)N1CCn2c(c(C(N)=O)c(-c3ccc(C(F)(F)F)cc3)c2C2CC2)C1
2: Cc1nc(-c2ccc(F)cc2)c(-c2ccc3nc(NC(=O)c4ccnnc4)cn3n2)n1C
3: CN(C)S(=O)(=O)Nc1cccc(-c2c(C(N)=O)c3n(c2C2CC2)CCN(C(=O)NC(C)(C)C)C3)c1
4: Cn1nc(-c2ccc(F)cc2)c(-c2ccc3nc(NC(=O)c4ccnc(F)c4)cn3n2)c1C1CCN(C(=O)c2ccon2)CC1
[ask] Ascending by IC50, please: list the compounds accordingly. Please respond by ranking the labels in the order requested.
[reply] 4, 2, 1, 3
(4: 2.2 nM, 2: 10.5 nM, 1: 84 nM, 3: 521 nM)

---

Below are pIC50 measurements against UniProt P49674 drawn from the literature.
pIC50: −log10 of the molar value.
Experimental Readout: pIC50

Observe how each entry below is paired with its result.
{"columns": ["Structure Smiles", "Target Of Assay", "Quantitative Result"],
 "data": [
  ["Cc1nc(-c2ccc(F)cc2)c(-c2ccc3nc(NC(=O)[C@@H]4CC(F)(F)CN4)cn3n2)n1C", "UniProt P49674", 7.40],
  ["Cc1nc(-c2ccc(F)cc2)c(-c2ccc3nc(NC(=O)c4ncccn4)cn3n2)n1C", "UniProt P49674", 7.76]
]}

P: Cc1nc(-c2ccc(F)cc2)c(-c2ccc3nc(NC(=O)c4cncnc4)cn3n2)n1C
Q: O=C(Nc1cn2nc(-c3c(-c4ccc(F)cc4)nc(C4CC4)n3C3CCN(CCC(F)(F)F)CC3)ccc2n1)c1ccnc(F)c1
[ask] Of P and Q , which carries the smaller reported pIC50 figure? Returns: label corresponding to the selected item.
[reply] Q
(Q: 7.27, P: 8.63)

I: CC1(C)CN(c2ccc3nc(-c4ccc(F)cc4)c(-c4ccncc4)n3n2)CCN1
II: CC(C)(CO)CNC(=O)N1CCn2c(Cl)c(-c3cccc(C(F)(F)F)c3)c(C(N)=O)c2C1
[ask] Could you please tell me which of these two has the higher pIC50: I or II ? Returns: label corresponding to the selected item.
[reply] II

---

Below are IC50 measurements against CK1ε (Homo sapiens (Human), UniProt P49674) drawn from the literature.
Experimental Readout: IC50 (µM)

{"columns": ["Structure Smiles", "IC50 / µM"],
 "data": [
  ["Cc1nc(-c2ccc(F)cc2)c(-c2ccc3nc(NC(=O)c4ccc(C#N)nc4)cn3n2)n1C", 0.00395],
  ["CC(C)(C)NC(=O)N1CCn2c(c(C(N)=O)c(-c3ccc(NS(C)(=O)=O)cc3)c2C2CC2)C1", 0.532]
]}

I: O=C(Nc1cn2nc(-c3c(-c4ccc(F)cc4)ncn3C3CCN(C(=O)OC4CCCC4)CC3)ccc2n1)c1ccnc(F)c1
II: Cn1cc(-c2ccc3nc(NC(=O)c4ccccc4F)cn3n2)c(-c2ccc(F)cc2)n1
III: Cc1nc(-c2cccnc2)sc1C(=O)Nc1cn2nc(-c3c(-c4ccc(F)cc4)nn(C)c3C3CCN(CC(N)=O)CC3)ccc2n1
[ask] Ascending by IC50, please: list the compounds accordingly. Please respond by ranking the labels in the order requested.
[reply] III, II, I
(III: 0.0013 µM, II: 0.0092 µM, I: 0.014 µM)
